Here the recorded IC50 is given for each entry.
test_target: Serotonin (5-HT) uptake (Rattus norvegicus, UniProt P31652)
Construct: The suspension was used as a crude synaptosome fraction; from tissue; host or cells: rat (male Wistar) frontal cortex, crude synaptosome fraction
Sequence (P31652 whole entry): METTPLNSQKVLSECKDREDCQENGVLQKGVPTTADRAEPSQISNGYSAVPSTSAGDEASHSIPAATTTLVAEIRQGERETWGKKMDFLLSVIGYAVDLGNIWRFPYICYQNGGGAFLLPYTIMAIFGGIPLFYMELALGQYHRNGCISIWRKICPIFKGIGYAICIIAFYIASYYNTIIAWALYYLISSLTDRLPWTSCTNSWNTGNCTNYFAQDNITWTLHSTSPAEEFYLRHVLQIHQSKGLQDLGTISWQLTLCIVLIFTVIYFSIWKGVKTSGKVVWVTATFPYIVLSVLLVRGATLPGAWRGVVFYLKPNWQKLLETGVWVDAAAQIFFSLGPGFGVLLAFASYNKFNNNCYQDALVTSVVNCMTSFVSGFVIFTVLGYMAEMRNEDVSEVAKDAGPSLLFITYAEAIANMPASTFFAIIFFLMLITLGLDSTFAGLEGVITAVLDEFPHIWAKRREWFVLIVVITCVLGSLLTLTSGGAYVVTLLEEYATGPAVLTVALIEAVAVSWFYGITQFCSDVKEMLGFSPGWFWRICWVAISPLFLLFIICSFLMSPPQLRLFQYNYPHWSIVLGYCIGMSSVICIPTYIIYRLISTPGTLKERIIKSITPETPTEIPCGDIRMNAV
protocol_details: Serotonin (5-HT) uptake inhibitory activity using rat brain synaptosome (frontal cortex)
Type: biochemical
setup_conditions: tritium-labeled 5-HT 8 nM, 37° C. 10 minutes, read-out: 50% Inhibitory concentration
measurement_label: IC50 (nM)

>>> numeric_readout("CC1(C)CN(c2ccc3cc(OC(F)F)ccc3c2)[C@H]2CCCC[C@@H]2N1 [Example 867]")
4.7
>>> numeric_readout("CC1(C)CN(c2ccc3cc(C#N)oc3c2)[C@@H]2CCCC[C@@H]2N1 [Example 641]")
2.2
>>> numeric_readout("CC1(C)CN(c2cccc3occc23)[C@H]2CCCC[C@@H]2N1 [Example 191]")
3.2
>>> numeric_readout("CC1(C)CN(c2cccc3[nH]ncc23)[C@H]2CCCC[C@H]2N1 [Example 778]")
87.5
>>> numeric_readout("CC1(C)CN(c2ccc(O)cc2)[C@H]2CCCC[C@H]2N1 [Example 805]")
42.6
>>> numeric_readout("CC1(C)CN(c2cc(Cl)c3occc3c2)[C@H]2CCCC[C@@H]2N1 [Example 884]")
7.3
>>> numeric_readout("CC1(C)CN(c2ccc(OC(F)F)c3occc23)[C@@H]2CCCC[C@H]2N1 [Example 983]")
6.5
>>> numeric_readout("CC1(C)CN(c2cccc3[nH]ccc23)[C@@H]2CCCC[C@@H]2N1 [Example 85]")
7.2
>>> numeric_readout("CN1[C@@H]2CCCC[C@@H]2N(c2cccc3sccc23)CC1(C)C [Example 125]")
4.7

---

test_target: Serotonin (5-HT) uptake (Rattus norvegicus, UniProt P31652)
Construct: The suspension was used as a crude synaptosome fraction; from tissue; host or cells: rat (male Wistar) frontal cortex, crude synaptosome fraction
protocol_details: Serotonin (5-HT) uptake inhibitory activity using rat brain synaptosome (frontal cortex)
Assay type: biochemical
setup_conditions: tritium-labeled 5-HT 8 nM, 37° C. 10 minutes, read-out: 50% Inhibitory concentration
Where a name gives a salt, the structure may show the parent alone.
Here the recorded IC50 is given for each entry.
measurement_label: IC50 (nM)

>>> numeric_readout("C[C@@H]1CN(c2ccc(F)c3ccccc23)[C@H]2CCCC[C@@H]2N1")
40.7
>>> numeric_readout("OCCN1CCN(c2ccc(Cl)c(Cl)c2)[C@H]2CCCC[C@@H]21 (relative stereo)")
89.1
>>> numeric_readout("CC1(C)CN(c2ccc(O)c(Cl)c2)[C@H]2CCCC[C@@H]2N1")
10
>>> numeric_readout("CC1(C)CN(c2ccc(F)c(Cl)c2)[C@@H]2CCCC[C@@H]2N1 [Example 112, hydrochloride]")
7.1
>>> numeric_readout("CC1(C)CN(c2ccc3[nH]c(C#N)cc3c2)[C@H]2CCCC[C@@H]2N1")
4.1
>>> numeric_readout("CN1[C@H]2CCCC[C@@H]2N(c2ccc3sccc3c2)CC1(C)C")
5.8
>>> numeric_readout("CC1(C)CN(c2ccc3cc[nH]c3c2)[C@H]2CCCC[C@H]2N1")
7.1
>>> numeric_readout("CC1(C)CN(c2ccc(F)c3[nH]ccc23)[C@H]2CCCC[C@@H]2N1")
5.4
>>> numeric_readout("CC1(C)CN(c2ccc3[nH]c(C#N)cc3c2)[C@H]2CCCC[C@H]2N1")
6.2
>>> numeric_readout("CC1(C)CN(c2ccc3ccsc3c2)[C@H]2CCCC[C@@H]2N1")
6
>>> numeric_readout("CN1[C@@H]2CCCC[C@H]2N(c2ccc(Cl)c(Cl)c2)CC1(C)C")
44
>>> numeric_readout("Cn1c(C#N)cc2cc(N3CC(C)(C)N[C@@H]4CCCC[C@@H]43)ccc21")
5.4
>>> numeric_readout("CC1(C)CN(c2ccnc3[nH]ccc23)[C@H]2CCCC[C@@H]2N1 [Example 586, fumarate]")
5.2
>>> numeric_readout("CC1(C)CN(c2ccc(F)c3ccccc23)[C@H]2CCCC[C@@H]2N1 (relative stereo)")
35.6
>>> numeric_readout("CC1(C)CN(c2csc3ccccc23)[C@@H]2CCCC[C@@H]2N1 [Example 577]")
5.2
>>> numeric_readout("CC1(C)CN(c2cccc3ccsc23)[C@H]2CCCC[C@H]2N1")
5.3
>>> numeric_readout("CC1(C)CN(c2ccc(F)c3c2CCC3)[C@H]2CCCC[C@H]2N1")
1.4
>>> numeric_readout("CC1(C)CN(c2ccc(F)c3[nH]ccc23)[C@H]2CCCC[C@H]2N1")
6.5
>>> numeric_readout("CC1(C)CN(c2cccc3occc23)[C@H]2CCCC[C@H]2N1")
6.1
>>> numeric_readout("CC1(C)CN(c2ccc(Cl)c(Cl)c2)[C@H]2CCC[C@@H]2N1 (racemic)")
12.5
>>> numeric_readout("CC1(C)CN(c2ccc(Cl)c(Cl)c2)C2CCCC2N1 (stereo not shown)")
6.2
>>> numeric_readout("CC1(C)CN(c2ccc3[nH]c(C#N)cc3c2)[C@@H]2CCCC[C@@H]2N1")
1.5
>>> numeric_readout("Clc1ccc(N2CCN[C@H]3CCCC[C@@H]32)c2ccoc12")
5.1
>>> numeric_readout("c1cc(N2CC3(CCC3)N[C@H]3CCCC[C@@H]32)c2ccoc2c1")
0.7
>>> numeric_readout("CC1(C)CN(c2ccc3occc3c2)[C@H]2CCCC[C@@H]2N1")
4.4
>>> numeric_readout("CC1(C)CN(c2ccc(Cl)c(Cl)c2)[C@H]2CCCC[C@@H]2N1")
6.8
>>> numeric_readout("CC1(C)CN(c2ccc3sccc3c2)[C@H]2CCCC[C@@H]2N1")
5.2
>>> numeric_readout("CC1(C)CN(c2ccc3sccc3c2)[C@H]2CCCCC[C@@H]2N1 (relative stereo)")
6.4
>>> numeric_readout("CC1(C)CN(c2cccc3sccc23)[C@H]2CCCC[C@H]2N1")
8.5
>>> numeric_readout("CC1(C)CN(c2ccc(Cl)c(Cl)c2)[C@@H]2CCCCC[C@@H]2N1 (relative stereo)")
10
>>> numeric_readout("CC1(C)CN(c2cc(F)c(F)c3occc23)[C@@H]2CCCC[C@@H]2N1 [Example 580, hydrochloride]")
2.5
>>> numeric_readout("c1cc2cc(N3CC4(CCCC4)N[C@H]4CCCC[C@@H]43)ccc2s1 (relative stereo)")
19.3
>>> numeric_readout("CC1(C)CN(c2ccc(Cl)c3occc23)[C@H]2CCCC[C@@H]2N1")
3.4
>>> numeric_readout("CC[C@@H]1CN(c2ccc3ccccc3c2)[C@H]2CCCC[C@@H]2N1C (relative stereo)")
56.1
